Reference for the values: ChEMBL document CHEMBL5537130

Tested System: Fatty acid-binding protein, adipocyte (Homo sapiens)
Sequence (P15090 whole entry): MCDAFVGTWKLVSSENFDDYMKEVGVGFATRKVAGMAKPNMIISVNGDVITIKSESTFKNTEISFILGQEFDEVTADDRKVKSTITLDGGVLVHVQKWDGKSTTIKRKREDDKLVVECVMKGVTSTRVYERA
pKi: −log10 of the molar value.

| Smiles Str | pKi |
| --- | --- |
| COc1ccc(Nc2cccc(Cl)c2-c2ccccc2)c(C(=O)O)c1 | 6.44 |

----------
Test Description: in vitro
Settings: mouse, liver microsomes
Description: Metabolic stability in mouse liver microsomes assessed as half life at 1 uM preincubated with compound for 10 mins followed by NADPH addition and measured upto 60 mins by LC-MS/MS analysis

| Smiles Str | half-life at 1 h, 1 µM (min) |
| --- | --- |
| O=C(O)c1ccccc1Nc1cccc(Cl)c1-c1ccccc1 | 31.4 |

----------
System: FABP3 versus FABP4
Test Description: in vitro
Settings: probe 1,8-ANS
Description: Selectivity index, ratio of Ki for displacement of 1,8-ANS from N-terminal 6His-tagged full length FABP3 (unknown origin) expressed in Escherichia coli ER2566 to Ki for displacement of 1,8-ANS from N-terminal 6His-tagged full length FABP4 (unknown origin) expressed in Escherichia coli ER2566

| Smiles Str | selectivity ratio |
| --- | --- |
| COc1ccc(Nc2cccc(Cl)c2-c2ccccc2)c(C(=O)O)c1 | 6 |
